Source of measurements: patent US9179668B2

# Tested on: herbaceous plants
# experimental_details: Spraying of herbicide solutions on 50×50 cm plots of land with herbaceous plants; deterioration of the vegetation observed
# Type: in vivo
# condition_parameters: glyphosate 6 g/l + glycerol ether 0.9 g/l, 36 g of solution per m^2 (plot 2)
List of time after which deterioration was complete values.
outcome_measure: time after which deterioration was complete (days)

• CCCCCCOCC(O)CO (stereo not shown) = 10
• CCOCC(O)CO (stereo not shown) = 11
• COCC(O)COC = 15
• CCCCCOCC(O)CO (stereo not shown) = 10
• CCCCC(CC)COCC(O)CO (stereo not shown) = 11
• CC(C)OCC(O)CO (stereo not shown) = 12
• CCCCOCC(O)CO (stereo not shown) = 10
• COCC(O)CO (stereo not shown) = 13
• CCCCCCCCCCOCC(O)CO (stereo not shown) = 11
• CCOCC(O)COCC = 13
